# TARGET_OF_ASSAY: T1, hPD-1 mIg fusion protein (human; mouse, UniProt Q15116 25-170)
# T1 construct: extracellular domain; not shown: CH2-CH3 domain of mouse IgG2a heavy chain (plasmid pmIgG)
# PROTOCOL_DESCRIPTION: SPR Biacore T100, hPD-1mIg immobilised by amine coupling, antibody as analyte
ASSAY_METRIC: kon (M⁻¹ s⁻¹)
Numbers only, in M⁻¹ s⁻¹.

# input // query kon value for entry Variant 6 (antibody, V domains shown, Humanized; VH variant b, VK variant c; Constant regions not spelled out; chimeric parent has human IgG4-S228P and human kappa; also called mutant combination 6) VH: EVQLVESGGGLVQPGGSLRLSCAASGFTFSSYTMSWVRQAPGKGLEWVSYISHGGGDTYYPDSVKGRFTISRDNSKNTLYLQMNSLRAEDTAVYYCARHSGYERGYYYVMDYWGQGTLVTVSS VL: DIQLTQSPDSLSVSLGERATINCKASESVDYYGFSFLNWFQQKPGQPPKLLIYAASNRQSGVPDRFSGSGSGTDFTLTISSLQAEDVAVYFCQQSKEVPWTFGQGTKLEIKR
# output 248000
